- test-system: ASK1 (Apoptosis Signal-Regulating Kinase 1) (Homo sapiens (Human), UniProt Q99683)
- Sequence (Q99683 649-946): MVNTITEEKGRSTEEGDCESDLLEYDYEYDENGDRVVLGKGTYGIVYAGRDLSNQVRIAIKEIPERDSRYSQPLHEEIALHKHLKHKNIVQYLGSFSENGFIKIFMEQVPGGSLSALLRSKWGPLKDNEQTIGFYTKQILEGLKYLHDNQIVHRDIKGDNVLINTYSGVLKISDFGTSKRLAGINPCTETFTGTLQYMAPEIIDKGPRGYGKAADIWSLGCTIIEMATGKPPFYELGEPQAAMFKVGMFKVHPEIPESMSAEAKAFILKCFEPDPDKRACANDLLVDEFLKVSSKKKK
- experiment-notes: ASK1 (Apoptosis Signal-Regulating Kinase 1) TR-FRET Kinase Assay (Biochemical IC50)
- cond: TR-FRET, biotin-MBP substrate, 20 min pre-incubation, ATP added as 300 μM solution
endpoint-name: IC50 (µM)
Numbers only, in µM.

Worked cases, answers included:
What does the record list as IC50 for `C[C@H](n1cnnc1-c1cccc(NC(=O)c2cc(-c3ccc(C4CC4)nc3)ccn2)c1)C(C)(C)C` ? 1.13

What does the record list as IC50 for `O=C(Nc1cccc(-c2nncn2CC2CC2)c1)c1cc(-n2cnc(C3CC3)c2)ccn1` ? 0.034

Look at each compound and report its IC50.
1. O=C(Nc1cccc(-c2nncn2C2CC2)c1)c1cc(-c2ccc(OC3CCC3)nc2)ccn1
2. CN1CCC(c2ccc(-c3ccnc(C(=O)Nc4cccc(-c5nncn5C5CC5)c4)c3)cn2)C1=O (stereo not shown)
3. O=C(Nc1cccc(-c2nncn2C2CC2)c1)c1cc(-c2ccc(CC3CC3)nc2)ccn1
4. O=C(Nc1cccc(-c2nncn2C2CC2)c1)c1cc(-c2cncc(Cl)c2)ccn1
5. CN1CCc2c(ncn2-c2ccnc(C(=O)Nc3cccc(-c4nncn4C4CC4)n3)c2)C1C(F)(F)F (stereo not shown)
6. COc1ccc(-c2ccnc(C(=O)Nc3cccc(-c4nncn4C4CC4)c3)c2)cn1
7. O=C(Nc1cccc(-c2nncn2C2CC2)n1)c1cc(-n2cnc(C(F)(F)F)c2)ccn1

1: 0.031; 2: 0.008; 3: 0.013; 4: 0.034; 5: 0.004; 6: 0.012; 7: 0.006

Look at each compound and report its IC50.
1. Cc1ccc(-c2ccnc(C(=O)Nc3cccc(-c4nncn4C4CC4)c3)c2)cn1
2. Cc1cc(-c2cccnc2)cc(C(=O)Nc2cccc(-c3nncn3C)c2)n1
3. CCc1ncc(-c2ccnc(C(=O)Nc3cccc(-c4nncn4C4CC4)c3)c2)cc1Cl
4. O=C(Nc1cccc(-c2nncn2C2CC2)c1)c1cc(-c2ccc(OC3CC3)nc2)ccn1
5. O=C(Nc1cccc(-c2nncn2C2CC2)c1)c1cc(-n2cnc(-c3ccccc3)c2)ccn1

1. 0.011
2. 0.212
3. 0.016
4. 0.012
5. 0.017

Look at each compound and report its IC50.
1. O=C(Nc1ccnc(-c2nncn2C2CC2)c1)c1cc(-c2ccc(C3CC3)nc2)ccn1
2. Cn1cnnc1-c1cccc(NC(=O)c2cc(-c3cccnc3)ccn2)c1

1: 0.286; 2: 0.042

###

- test-system: UniProt:Q99683
- experiment-notes: ASK1 (Apoptosis Signal-Regulating Kinase 1) TR-FRET Kinase Assay (Biochemical IC50)
- cond: TR-FRET, biotin-MBP substrate, 20 min pre-incubation, ATP added as 300 μM solution
Answer each item with its documented pIC50.
Give bare numbers, as −log10 of the molar value.

Worked cases, answers included:
What does the record list as pIC50 for `O=C(Nc1cccc(-c2nncn2C2CC2)c1)c1cc(-n2cnc(Cl)c2)ccn1` ? 7.77

What does the record list as pIC50 for C[C@@H](c1ccccc1)n1cnnc1-c1cccc(NC(=O)c2cccc(-n3cnc(C4CC4)c3)c2)n1 [Example 217] ? 7.85

What does the record list as pIC50 for `O=C(Nc1cccc(-c2nncn2C2CC2)n1)c1cc(-c2ccc(C3CC3)nc2)c2ccccc2n1` ? 6.99

Look at each molecule and report its pIC50.
1. O=C(Nc1cccc(-c2nncn2C2CCOCC2)c1)c1cc(-c2cccnc2)ccn1
2. CC(C)n1ccc2ncc(-c3ccnc(C(=O)Nc4cccc(-c5nncn5C5CC5)c4)c3)cc21
3. O=C(Nc1cccc(-c2nncn2CC2(O)CC2)c1)c1cc(-c2cccnc2)ccn1
4. Cn1cnnc1-c1cccc(NC(=O)c2cncc(-c3cccnc3)c2)c1
5. NS(=O)(=O)c1ccc(-c2ccnc(C(=O)Nc3cccc(-c4nncn4C4CC4)c3)c2)cc1

5.71
7.82
6.76
6.66
7.09

Look at each molecule and report its pIC50.
1. CC[C@H](C)n1cnnc1-c1cccc(NC(=O)c2cc(-c3ccc(C4CC4)nc3)ccn2)c1
2. O=C(Nc1cccc(-c2nncn2C2CCC2)c1)c1cc(-c2cccnc2)ccn1
3. O=C(Nc1cccc(-c2nncn2C2CC2)c1)c1cc(-c2ccc(C3CCCC3)nc2)ccn1
4. CN1CCc2ncc(-c3ccnc(C(=O)Nc4cccc(-c5nncn5C5CC5)c4)c3)cc2C1
5. O=C(Nc1cccc(-c2nncn2C2CC2)c1)c1cc(-n2cncn2)ccn1
6. O=C(Nc1cccc(-c2nncn2C2CC2)n1)c1cc(-n2cnc(-c3ccccc3)c2)ccn1

1: 7.42; 2: 7.20; 3: 7.68; 4: 7.68; 5: 6.96; 6: 8.00

Values compiled from patent USRE48711E1.
